Entry source: the kinase profiling compilation of Christmann-Franck et al. (2016)

# kinase still bound, per cent of control annotations
- Target or test system: UniProtKB P61075
- Sequence (P61075 whole entry, looked up): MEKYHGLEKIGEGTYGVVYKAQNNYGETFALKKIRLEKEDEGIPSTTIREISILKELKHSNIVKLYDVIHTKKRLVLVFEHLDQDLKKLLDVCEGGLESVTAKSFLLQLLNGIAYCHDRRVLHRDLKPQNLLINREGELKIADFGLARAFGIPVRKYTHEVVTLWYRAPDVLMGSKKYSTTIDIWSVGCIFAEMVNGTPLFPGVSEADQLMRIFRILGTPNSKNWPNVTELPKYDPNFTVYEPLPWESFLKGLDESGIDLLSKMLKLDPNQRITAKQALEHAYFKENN
- Test summary: KINOMEscan competition binding
- Cond: compound 10.0 µM

Known kinase still bound, per cent of control results, listed for orientation:
>  <Molecule smiles>
COc1cc2c(Nc3ccc(NC(=O)c4ccccc4)cc3)ncnc2cc1OCCCN1CCOCC1

>  <Target or test system>
UniProtKB P61075

>  <kinase still bound, per cent of control>
100%

$$$$
>  <Molecule smiles>
CNC(=O)Nc1ccc(-c2nc(N3CC4CCC(C3)O4)c3cnn(C4CCC5(CC4)OCCO5)c3n2)cc1

>  <Target or test system>
UniProtKB P61075

>  <kinase still bound, per cent of control>
100%

$$$$
>  <Molecule smiles>
COc1cc2ncnc(Nc3cccc(Cl)c3)c2cc1OC

>  <Target or test system>
UniProtKB P61075

>  <kinase still bound, per cent of control>
100%

$$$$
>  <Molecule smiles>
C=CC(=O)Nc1ccc(C(=O)c2sc(Nc3ccc(N4CCN(C)CC4)cc3OC)nc2N)cc1

>  <Target or test system>
UniProtKB P61075

>  <kinase still bound, per cent of control>
92%

$$$$

Next:
*Q* Indicate its recorded kinase still bound, per cent of control; the compound in question is N#Cc1cc(-c2ccnc(Nc3ccc(-n4cnc(-c5cccnc5)n4)cc3)n2)cc(N2CCOCC2)c1
*A* 100%
